# ASSAY_TEXT: Cytotoxicity against human BEAS2B cells assessed as cell viability at 64 ug/ml incubated for 24 hrs by MTT assay relative to control
# Assay type: cell-based
# EXPERIMENTAL_CONDITIONS: BEAS-2B cells, read-out: Activity
PROPERTY: viability at 24 h, 64 ug/ml (%)
# unit: % | format: bare number

Qu. Reported viability at 24 h, 64 ug/ml for Nc1ccc(S(=O)(=O)Nc2nccc(-n3ccc4ccccc43)n2)cc1 : what is it?
Ans. 70

* * *

# Tested on: Staphylococcus aureus
# ASSAY_TEXT: Antibacterial activity against Staphylococcus aureus ATCC 25923 by two fold serial microbroth dilution method
# Format: functional
Reported MIC values for a set of compounds
# unit: µg/mL | format: bare number

A selection of reference data follows.
Qu. # query: MIC | item Cc1ncc([N+](=O)[O-])n1-c1ccnc(NS(=O)(=O)c2ccc(N)cc2)n1 | system: Staphylococcus aureus
Ans. 128

Qu. What do we get for Nc1ccc(S(=O)(=O)Nc2nccc(-n3ccc4cc(Br)ccc43)n2)cc1 ?
Ans. 2

Qu. What do we get for CCCc1nccn1-c1ccnc(NS(=O)(=O)c2ccc(N)cc2)n1 ?
Ans. 64

Qu. What do we get for Nc1ccc(S(=O)(=O)Nc2nccc(-n3cnc4ccccc43)n2)cc1 ?
Ans. 512

Qu. What do we get for CC(C)c1nccn1-c1ccnc(NS(=O)(=O)c2ccc(N)cc2)n1 ?
Ans. 256

# next compound below
Qu. # query: MIC | item CCn1cc(C(=O)O)c(=O)c2cc(F)c(N3CCNCC3)cc21 | system: Staphylococcus aureus
Ans. 1

* * *

# Test system: Escherichia coli
# ASSAY_TEXT: Antibacterial activity against Escherichia coli ATCC 25922 by two fold serial microbroth dilution method
# Type: functional
PROPERTY: MIC (µg/mL)
# unit: µg/mL | format: bare number

A selection of reference data follows.
Qu. # query: MIC | item Nc1ccc(S(=O)(=O)Nc2nccc(-n3ccc4ccccc43)n2)cc1 | system: Escherichia coli
Ans. 32

Qu. What do we get for CC(C)c1nccn1-c1ccnc(NS(=O)(=O)c2ccc(N)cc2)n1 ?
Ans. 128

Qu. What do we get for CCCc1nccn1-c1ccnc(NS(=O)(=O)c2ccc(N)cc2)n1 ?
Ans. 128

Qu. What do we get for CCc1nccn1-c1ccnc(NS(=O)(=O)c2ccc(N)cc2)n1 ?
Ans. 512

Qu. What do we get for Nc1ccc(S(=O)(=O)Nc2nccc(-n3ccc4cc([N+](=O)[O-])ccc43)n2)cc1 ?
Ans. 128

Qu. What do we get for Nc1ccc(S(=O)(=O)Nc2nccc(-n3cncn3)n2)cc1 ?
Ans. 256

Qu. What do we get for Cc1ccc2c(ccn2-c2ccnc(NS(=O)(=O)c3ccc(N)cc3)n2)c1 ?
Ans. 32

Qu. What do we get for Nc1ccc(S(=O)(=O)Nc2nccc(-n3ccc4cc(Br)ccc43)n2)cc1 ?
Ans. 2

Qu. What do we get for Cc1cc2ncn(-c3ccnc(NS(=O)(=O)c4ccc(N)cc4)n3)c2cc1C ?
Ans. 512

Next:
Qu. # query: MIC | item Cc1nccn1-c1ccnc(NS(=O)(=O)c2ccc(N)cc2)n1 | system: Escherichia coli
Ans. 256

* * *

# System: Klebsiella pneumoniae
# ASSAY_TEXT: Antibacterial activity against Klebsiella pneumoniae by two fold serial microbroth dilution method
# Format: functional
PROPERTY: MIC (µg/mL)
# unit: µg/mL | format: bare number

Qu. Reported MIC for Nc1ccc(S(=O)(=O)Nc2nccc(-n3cnc4ccccc43)n2)cc1 : what is it?
Ans. 256

Qu. What do we get for CCCc1nccn1-c1ccnc(NS(=O)(=O)c2ccc(N)cc2)n1 ?
Ans. 64

Qu. What do we get for Cc1nccn1-c1ccnc(NS(=O)(=O)c2ccc(N)cc2)n1 ?
Ans. 512

Next:
Qu. Reported MIC for CCc1nccn1-c1ccnc(NS(=O)(=O)c2ccc(N)cc2)n1 : what is it?
Ans. 64

Qu. What do we get for Cc1ncc([N+](=O)[O-])n1-c1ccnc(NS(=O)(=O)c2ccc(N)cc2)n1 ?
Ans. 64

Qu. What do we get for Nc1ccc(S(=O)(=O)Nc2nccc(-n3ccc4ccccc43)n2)cc1 ?
Ans. 32
